testSystem: pre-existing anti-drug antibodies (ADA) present in human sera
assayDetails: pre-existing ADA ELISA, scFv coated, human sera unspiked vs spiked
quantityMeasured: Mean No of serum samples >30% inhibition (30% CCP) with SCP (serum samples)
Response field accepts a number only; no unit should be typed.

PRO2986 (scFv 37-20-B03-sc09.1_(T146A)) (scFv, PRO2230 variant; VH substitution, AHo numbering; also called PRO2230 T146A) scFv: DIQMTQSPASLSASVGDRVTITCQASQSIGTYLAWYQQKPGKPPKLLIYRAFILASGVPSRFSGSGSGTDFTLTISSLQPEDFATYYCQSNFYSDSTTIGPNAFGTGTKVTVLGGGGGSGGGGSGGGGSGGGGSEVQLVESGGGLVQPGGSLRLSCAASGFSFNSDYWIYWVRQAPGKGLEWIASIYGGSSGNTQYASWAQGRFTISRDNSKNTVYLQMNSLRAEDTAVYFCARGYVDYGGATDLWGQGTLVAVSS :: 8
PRO3338 (scFv 37-20-B03-sc09.1_(T101K, T146Q)) (scFv, PRO2230 variant; VH substitutions, AHo numbering; also called PRO2230 T101K-T146Q) scFv: DIQMTQSPASLSASVGDRVTITCQASQSIGTYLAWYQQKPGKPPKLLIYRAFILASGVPSRFSGSGSGTDFTLTISSLQPEDFATYYCQSNFYSDSTTIGPNAFGTGTKVTVLGGGGGSGGGGSGGGGSGGGGSEVQLVESGGGLVQPGGSLRLSCAASGFSFNSDYWIYWVRQAPGKGLEWIASIYGGSSGNTQYASWAQGRFTISRDNSKNTVYLQMNSLRAEDKAVYFCARGYVDYGGATDLWGQGTLVQVSS :: 0
PRO3306 (scFv 37-20-B03-sc09.1_(L12A, T101R, L144A, T146Q)) (scFv, PRO2230 variant; VH substitutions, AHo numbering; also called PRO2230 L12A-T101R-L144A-T146Q) scFv: DIQMTQSPASLSASVGDRVTITCQASQSIGTYLAWYQQKPGKPPKLLIYRAFILASGVPSRFSGSGSGTDFTLTISSLQPEDFATYYCQSNFYSDSTTIGPNAFGTGTKVTVLGGGGGSGGGGSGGGGSGGGGSEVQLVESGGGAVQPGGSLRLSCAASGFSFNSDYWIYWVRQAPGKGLEWIASIYGGSSGNTQYASWAQGRFTISRDNSKNTVYLQMNSLRAEDRAVYFCARGYVDYGGATDLWGQGTAVQVSS :: 0
PRO2933 (scFv 37-20-B03-sc09.1_(L144K, T146E, S148K)) (scFv, PRO2230 variant; VH substitutions, AHo numbering; also called PRO2230 L144K-T146E-S148K) scFv: DIQMTQSPASLSASVGDRVTITCQASQSIGTYLAWYQQKPGKPPKLLIYRAFILASGVPSRFSGSGSGTDFTLTISSLQPEDFATYYCQSNFYSDSTTIGPNAFGTGTKVTVLGGGGGSGGGGSGGGGSGGGGSEVQLVESGGGLVQPGGSLRLSCAASGFSFNSDYWIYWVRQAPGKGLEWIASIYGGSSGNTQYASWAQGRFTISRDNSKNTVYLQMNSLRAEDTAVYFCARGYVDYGGATDLWGQGTKVEVKS :: 1

Which Mean No of serum samples >30% inhibition (30% CCP) with SCP (serum samples) value is on record for PRO3342 (scFv 37-20-B03-sc09.1_(T101K, T146D)) (scFv, PRO2230 variant; VH substitutions, AHo numbering; also called PRO2230 T101K-T146D) scFv: DIQMTQSPASLSASVGDRVTITCQASQSIGTYLAWYQQKPGKPPKLLIYRAFILASGVPSRFSGSGSGTDFTLTISSLQPEDFATYYCQSNFYSDSTTIGPNAFGTGTKVTVLGGGGGSGGGGSGGGGSGGGGSEVQLVESGGGLVQPGGSLRLSCAASGFSFNSDYWIYWVRQAPGKGLEWIASIYGGSSGNTQYASWAQGRFTISRDNSKNTVYLQMNSLRAEDKAVYFCARGYVDYGGATDLWGQGTLVDVSS ?
0
